- Tested on: isolated tyrosinase
- assay-details: In vitro test of the inhibition of isolated tyrosinase (rate of dopachrome formation from L-Dopa, 475 nm)
- Format: biochemical
- run-conditions: concentration level 1%
endpoint-name: Results (inhibition) of tyrosinase (%)
Give the value in % but do not write % after it.

-- ask What reported Results (inhibition) of tyrosinase corresponds to O=S([O-])S(=O)(=O)[O-].[Na+].[Na+] [sodium metabisulfite] on isolated tyrosinase?
-- reply 100

-- ask Any idea what Results (inhibition) of tyrosinase came out for `O=S([O-])[O-].[K+].[K+]` on isolated tyrosinase?
-- reply 92.7

-- ask Recall the recorded Results (inhibition) of tyrosinase for `O=S([O-])S(=O)(=O)[O-].[K+].[K+]` with isolated tyrosinase and state it.
-- reply 100

More entries:
-- ask Item: O=S([O-])[O-].[Na+].[Na+] [sodium sulfite] Test system: isolated tyrosinase Read-out: Results (inhibition) of tyrosinase Value: ?
-- reply 100

* * *

Form field: Results (inhibition) of tyrosinase (one value per entry).
- Test system: isolated tyrosinase
- assay-details: In vitro test of the inhibition of isolated tyrosinase (rate of dopachrome formation from L-Dopa, 475 nm)
- Format: biochemical
- run-conditions: concentration level 0.1%
// return numeric value only (unit: %, not printed)

Field: example entries. Status: answers known.
-- ask What Results (inhibition) of tyrosinase value was documented for this molecule, O=S([O-])S(=O)(=O)[O-].[Na+].[Na+] [sodium metabisulfite] ?
-- reply 100

-- ask Query (molecule): O=S([O-])[O-].[Na+].[Na+] [sodium sulfite] ; field requested: Results (inhibition) of tyrosinase
-- reply 100

-- ask Bench note: what Results (inhibition) of tyrosinase did O=S([O-])S(=O)(=O)[O-].[K+].[K+] [potassium metabisulfite] show?
-- reply 93.63

***
-- ask I have this molecule here, O=S([O-])[O-].[K+].[K+] [potassium sulfite] , and I need its recorded Results (inhibition) of tyrosinase.
-- reply 98.10
